target: FFAR1 (Homo sapiens, UniProt O14842); test: In vitro radioligand binding and saturation binding in human islets of Langerhans homogenate; parameters: Isolated endocrine (75–95% islet purity) and exocrine tissues were homogenized in ice-cold 0.32 M sucrose; from tissue; host or cells: human isolated pancreatic islets (75–95% purity), homogenate; details: human islets, saturation binding 1 to 20 nM, n = 3, mean ± SEM
Sequence (O14842 whole entry): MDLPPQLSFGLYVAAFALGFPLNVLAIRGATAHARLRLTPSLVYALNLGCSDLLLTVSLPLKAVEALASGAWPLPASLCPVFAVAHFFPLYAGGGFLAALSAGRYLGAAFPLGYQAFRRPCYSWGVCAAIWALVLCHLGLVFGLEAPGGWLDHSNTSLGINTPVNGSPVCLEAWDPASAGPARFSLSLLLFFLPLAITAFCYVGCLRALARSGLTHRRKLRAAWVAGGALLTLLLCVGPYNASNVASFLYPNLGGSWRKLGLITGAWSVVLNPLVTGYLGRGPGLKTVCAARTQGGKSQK
measuredAttribute: Kd (nM)
Respond numerically; units are nM and should not be typed.

Entry under review: [3H]c1cc([3H])c(OCc2nc(-n3cc(C)cn3)nc(N3CCOCC3)c2[3H])cc1F [[^3H]AZ1] . Reported Kd?
10.6

====

biological target: UniProt:O14842; assay: In vitro radioligand binding and saturation binding in human exocrine pancreatic tissue homogenate; design: Isolated endocrine (75–95% islet purity) and exocrine tissues were homogenized in ice-cold 0.32 M sucrose; from tissue; host or cells: human exocrine pancreatic tissue, homogenate; conditions: human exocrine tissue, representative saturation binding experiment (Fig. 5b)
measuredAttribute: Kd
Field: value (include unit after the number)

Entry under review: [3H]c1cc([3H])c(OCc2nc(-n3cc(C)cn3)nc(N3CCOCC3)c2[3H])cc1F [[^3H]AZ1] . Reported Kd?
26.4 nM
